FYI, the data here is from paper PMC12567096.

- Tested on: H9c2 cells
- Run Description: Cytotoxicity on H9c2 cells (CCK-8)
- Format: cell-based, rat
- Measurement Conditions: Rattus norvegicus; 25 μM, H9c2 cells, n=3; read-out: Inhibition rate
Overview of recorded inhibition at 25 µM for various compounds
Express your answer in %, writing the number without its unit.

compound="O=C(/C=C/c1ccc(O)cc1)c1ccc(O)cc1O [Isoliquiritigenin]" reported_measurement=-14.9
compound="COC(=O)C1=CO[C@@H](O[C@@H]2O[C@H](CO)[C@@H](O)[C@H](O)[C@H]2O)[C@@H]2[C@@H](C)[C@H](O)C[C@H]12 [7-epi-loganin]" reported_measurement=2.8
compound="O=C(/C=C/c1ccc(O[C@@H]2O[C@H](CO)[C@@H](O)[C@H](O)[C@H]2O)cc1)c1ccc(O)cc1O [Isoliquiritin]" reported_measurement=-18.3
compound="COc1ccc(-c2coc3cc(O)ccc3c2=O)cc1O [Calycosin]" reported_measurement=6.8

Input line: Looking for the measured inhibition at 25 µM of O=C(/C=C/c1ccc(O)c(O)c1)O[C@@H]1C[C@](O)(C(=O)O)C[C@@H](O)[C@H]1O [Chlorogenic acid] , can you help?
Output line: -1.6

Input line: Looking for the measured inhibition at 25 µM of O=c1cc(-c2ccc(O)c(O)c2)oc2cc(O)cc(O)c12 [Luteolin] , can you help?
Output line: 12.2

Input line: Looking for the measured inhibition at 25 µM of COC(=O)C1=CO[C@@H](O[C@@H]2O[C@H](CO)[C@@H](O)[C@H](O)[C@H]2O)[C@@H]2[C@H](C)O[C@@H](O)C[C@H]12 [Morroniside] , can you help?
Output line: -10.6

###

Overview of recorded concentration at 8 h for various molecules
- Run Description: Concentrations of 24 analytes in QSG treated plasma (Table S5)
- Measurement Conditions: Sprague Dawley, rat, in vivo, 7 g/kg
Express your answer in ng/mL, writing the number without its unit.

smiles_string=COC[C@@]12CC[C@H](OC)[C@]34C(C([C@H](OC)[C@H]13)[C@]1(OC(C)=O)[C@H]3[C@@H](OC(=O)c5ccccc5)[C@](O)(C[C@H]34)[C@@H](OC)[C@@H]1O)N(C)C2 unit_spec=ng/mL reported_measurement=0.071

Turning now to a further record.
Input line: Looking for the measured concentration at 8 h of O=C(/C=C/c1ccc(O[C@@H]2O[C@H](CO)[C@@H](O)[C@H](O)[C@H]2O)cc1)c1ccc(O)cc1O , can you help?
Output line: 0.078

###

- Run Description: Concentrations of 24 analytes in QSG treated plasma (Table S5)
- Measurement Conditions: QSG treated plasma, 1 h, n = 5
Experimental Readout: Concentration (ng/mL)
Express your answer in ng/mL, writing the number without its unit.

compound="CC(C)(O)[C@@H]1CC[C@](C)([C@H]2[C@@H](O)C[C@@]3(C)[C@@H]4C[C@H](O[C@@H]5O[C@H](CO)[C@@H](O)[C@H](O)[C@H]5O)[C@H]5C(C)(C)[C@@H](O[C@@H]6OC[C@@H](O)[C@H](O)[C@H]6O)CC[C@@]56C[C@@]46CC[C@]23C)O1 [Astragaloside IV]" experimental_readout=Concentration reported_measurement=3.017

Input line: Looking for the measured Concentration of O=C(/C=C/c1ccc(O)c(O)c1)O[C@H]1[C@H](O)C[C@](O)(C(=O)O)C[C@H]1OC(=O)/C=C/c1ccc(O)c(O)c1 , can you help?
Output line: 11.005

Input line: Looking for the measured Concentration of C=C[C@H]1[C@H](O[C@@H]2O[C@H](CO)[C@@H](O)[C@H](O)[C@H]2O)OC=C(C(=O)O)[C@H]1CC(=O)O [Secologanoside] , can you help?
Output line: 2.135

Input line: Looking for the measured Concentration of O=C1C[C@@H](c2ccc(O)cc2)Oc2cc(O)ccc21 , can you help?
Output line: 3.255

Input line: Looking for the measured Concentration of COC[C@]12O[C@H]1[C@@H](O)[C@@H]1C=CO[C@@H](O[C@@H]3O[C@H](CO)[C@@H](O)[C@H](O)[C@H]3O)[C@@H]12 , can you help?
Output line: 1.293

Input line: Looking for the measured Concentration of COc1ccc(CCO[C@@H]2O[C@H](CO[C@@H]3OC[C@H](O)[C@H](O)[C@H]3O)[C@@H](OC(=O)/C=C/c3ccc(O)c(OC)c3)[C@H](O[C@@H]3O[C@@H](C)[C@H](O)[C@@H](O)[C@H]3O)[C@H]2O)cc1O [Angoroside C] , can you help?
Output line: 3.109

Input line: Looking for the measured Concentration of COc1ccc(-c2coc3cc(O[C@@H]4O[C@H](CO)[C@@H](O)[C@H](O)[C@H]4O)ccc3c2=O)cc1O [Calycosin-7-O-glucoside, Calycosin-7-O-D-glucoside] , can you help?
Output line: 3.192

Input line: Looking for the measured Concentration of O=C(/C=C/c1ccc(O)c(O)c1)O[C@H]1[C@H](O)C[C@](O)(C(=O)O)C[C@H]1O , can you help?
Output line: 54.572

###

- System: H9c2 cells
- Run Description: Cytotoxicity on H9c2 cells (CCK-8)
- Format: cell-based, rat
- Measurement Conditions: 50 μM, H9c2 cells, n=3
Experimental Readout: Inhibition rate (%)
Express your answer in %, writing the number without its unit.

Illustrative cases are given below, each with its answer.
molecule=O=C1C[C@@H](c2ccc(O)cc2)Oc2cc(O)ccc21 experimental_readout="Inhibition rate" unit_spec=% reported_measurement=2.3
molecule=C=C[C@H]1[C@H](O[C@@H]2O[C@H](CO)[C@@H](O)[C@H](O)[C@H]2O)OC=C(C(=O)OC)[C@H]1CC(=O)O experimental_readout="Inhibition rate" unit_spec=% reported_measurement=7.9
molecule="COc1ccc(-c2coc3cc(O[C@@H]4O[C@H](CO)[C@@H](O)[C@H](O)[C@H]4O)ccc3c2=O)cc1 [Formononetin-7-O-glucoside, Formononetin-7-O-D-glucoside]" experimental_readout="Inhibition rate" unit_spec=% reported_measurement=9.1

Input line: Looking for the measured Inhibition rate of COC[C@]12O[C@H]1[C@@H](O)[C@@H]1C=CO[C@@H](O[C@@H]3O[C@H](CO)[C@@H](O)[C@H](O)[C@H]3O)[C@@H]12 , can you help?
Output line: 5.1

Input line: Looking for the measured Inhibition rate of COc1ccc(-c2coc3cc(O[C@@H]4O[C@H](CO)[C@@H](O)[C@H](O)[C@H]4O)ccc3c2=O)cc1O [Calycosin-7-O-glucoside, Calycosin-7-O-D-glucoside] , can you help?
Output line: 7.8

###

Overview of recorded Concentration for various compounds
- Run Description: Concentrations of 24 analytes in QSG treated plasma (Table S5)
- Measurement Conditions: QSG treated plasma, 8 h, n = 5
Express your answer in ng/mL, writing the number without its unit.

compound=O=C(/C=C/c1ccc(O)c(O)c1)O[C@H]1[C@H](O)C[C@](O)(C(=O)O)C[C@H]1O experimental_readout=Concentration unit_spec=ng/mL reported_measurement=21.857
compound="CC(C)(O)[C@@H]1CC[C@](C)([C@H]2[C@@H](O)C[C@@]3(C)[C@@H]4C[C@H](O[C@@H]5O[C@H](CO)[C@@H](O)[C@H](O)[C@H]5O)[C@H]5C(C)(C)[C@@H](O[C@@H]6OC[C@@H](O)[C@H](O)[C@H]6O)CC[C@@]56C[C@@]46CC[C@]23C)O1 [Astragaloside IV]" experimental_readout=Concentration unit_spec=ng/mL reported_measurement=1.337

Turning now to a further record.
Input line: Looking for the measured Concentration of O=C(/C=C/c1ccc(O)c(O)c1)O[C@H]1[C@H](O)C[C@](O)(C(=O)O)C[C@H]1OC(=O)/C=C/c1ccc(O)c(O)c1 , can you help?
Output line: 7.703
